System: UniProt Q9P2H5
Sequence (Q9P2H5 whole entry, the tested form may be a part): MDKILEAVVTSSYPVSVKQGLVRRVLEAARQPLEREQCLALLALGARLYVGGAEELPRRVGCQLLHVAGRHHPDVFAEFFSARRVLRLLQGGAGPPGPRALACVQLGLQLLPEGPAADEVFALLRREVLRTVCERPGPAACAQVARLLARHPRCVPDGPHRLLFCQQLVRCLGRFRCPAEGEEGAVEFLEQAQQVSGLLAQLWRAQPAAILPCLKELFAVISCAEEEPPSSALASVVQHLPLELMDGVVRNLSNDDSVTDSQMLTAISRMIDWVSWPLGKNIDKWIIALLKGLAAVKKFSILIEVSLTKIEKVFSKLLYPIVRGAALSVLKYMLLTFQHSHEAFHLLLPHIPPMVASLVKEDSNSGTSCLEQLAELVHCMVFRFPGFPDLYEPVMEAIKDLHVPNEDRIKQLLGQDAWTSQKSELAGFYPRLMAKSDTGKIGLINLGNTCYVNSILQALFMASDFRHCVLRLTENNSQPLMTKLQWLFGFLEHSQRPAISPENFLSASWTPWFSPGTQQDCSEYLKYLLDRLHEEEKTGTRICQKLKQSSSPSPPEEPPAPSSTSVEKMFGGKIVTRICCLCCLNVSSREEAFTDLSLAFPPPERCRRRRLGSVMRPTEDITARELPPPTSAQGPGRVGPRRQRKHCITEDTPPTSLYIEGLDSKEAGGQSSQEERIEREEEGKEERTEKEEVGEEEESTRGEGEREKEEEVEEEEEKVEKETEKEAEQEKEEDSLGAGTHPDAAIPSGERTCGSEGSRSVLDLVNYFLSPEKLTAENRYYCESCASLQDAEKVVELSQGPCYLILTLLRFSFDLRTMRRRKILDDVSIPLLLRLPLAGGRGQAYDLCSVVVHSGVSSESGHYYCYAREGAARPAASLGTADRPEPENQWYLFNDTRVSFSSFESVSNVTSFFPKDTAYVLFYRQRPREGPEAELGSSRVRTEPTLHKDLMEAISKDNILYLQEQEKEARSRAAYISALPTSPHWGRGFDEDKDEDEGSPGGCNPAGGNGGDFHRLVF
Method Description: log2 ratio of Biotin-Ahx-Ub-VS probe labelling (fragment/DMSO); higher = less target engagement (more negative = stronger competition), active = hit call of the paper (q ≤ 0.05, log2 ratio ≤ -1)
Stated Conditions: compound concentration: 200 uM; treatment time: 3 h
Readout Kind: log2 ratio of Biotin-Ahx-Ub-VS probe labelling
Simply state the number, no unit and no words.

Worked cases, log2 ratio of Biotin-Ahx-Ub-VS probe labelling given:
- CNC(=O)C1(NC(=O)CCl)CCCCC1: -0.0698
- O=C(CCl)N(C1=CCCCC1)C1CC1: -0.351
- Cc1cccc(N(CCC#N)C(=O)CCl)c1C: -0.386

State its log2 ratio of Biotin-Ahx-Ub-VS probe labelling: COc1cccc(CN(C)C(=O)CCl)c1
0.258

State its log2 ratio of Biotin-Ahx-Ub-VS probe labelling: Cc1cc(Cl)ccc1NC(=O)CCl
-0.193

State its log2 ratio of Biotin-Ahx-Ub-VS probe labelling: CCN(C(=O)CCl)C1CCS(=O)(=O)C1 (configuration not stated)
-0.211

State its log2 ratio of Biotin-Ahx-Ub-VS probe labelling: O=C(CCl)N[C@H]1CC[C@@H](CO)CC1
-0.775

###

System: USP5 (UniProt P45974)
Sequence (P45974 whole entry, the tested form may be a part): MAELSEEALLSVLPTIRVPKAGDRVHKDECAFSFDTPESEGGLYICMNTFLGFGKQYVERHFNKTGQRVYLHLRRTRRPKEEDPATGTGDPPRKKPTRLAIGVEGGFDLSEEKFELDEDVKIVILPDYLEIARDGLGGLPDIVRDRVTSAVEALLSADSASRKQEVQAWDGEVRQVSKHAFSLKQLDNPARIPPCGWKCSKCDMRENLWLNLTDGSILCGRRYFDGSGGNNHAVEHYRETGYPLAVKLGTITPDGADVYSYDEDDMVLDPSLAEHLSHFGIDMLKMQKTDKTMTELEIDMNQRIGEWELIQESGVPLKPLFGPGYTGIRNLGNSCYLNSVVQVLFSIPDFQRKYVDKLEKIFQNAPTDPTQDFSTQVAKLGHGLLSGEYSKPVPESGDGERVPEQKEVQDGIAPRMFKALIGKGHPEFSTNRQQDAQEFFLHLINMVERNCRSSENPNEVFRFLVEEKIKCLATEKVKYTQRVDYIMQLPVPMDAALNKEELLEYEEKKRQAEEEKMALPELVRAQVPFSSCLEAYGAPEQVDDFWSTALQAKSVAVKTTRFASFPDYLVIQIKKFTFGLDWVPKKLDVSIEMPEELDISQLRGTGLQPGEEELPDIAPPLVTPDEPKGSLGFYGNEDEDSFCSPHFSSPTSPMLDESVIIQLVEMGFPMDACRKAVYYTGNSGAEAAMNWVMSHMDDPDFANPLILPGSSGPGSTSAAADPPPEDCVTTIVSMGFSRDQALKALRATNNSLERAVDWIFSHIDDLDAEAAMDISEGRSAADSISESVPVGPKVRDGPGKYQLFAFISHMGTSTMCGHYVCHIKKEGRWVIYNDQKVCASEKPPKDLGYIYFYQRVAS
Method Description: log2 ratio of Biotin-Ahx-Ub-VS probe labelling (fragment/DMSO); higher = less target engagement (more negative = stronger competition), active = hit call of the paper (q ≤ 0.05, log2 ratio ≤ -1)
Stated Conditions: compound concentration: 200 uM; treatment time: 3 h
Readout Kind: log2 ratio of Biotin-Ahx-Ub-VS probe labelling
Simply state the number, no unit and no words.

Worked cases, log2 ratio of Biotin-Ahx-Ub-VS probe labelling given:
- COc1cc(Cl)c(C)cc1NC(=O)CCl: -0.267
- Cc1nc(CN2CCCN(C(=O)CCl)CC2)no1.Cl: -0.016
- CC(NC(=O)CCl)c1cc2n(n1)CCCC2.Cl (centres undefined): -0.437
- O=C(CCl)N[C@H]1CC[C@@H](CO)CC1: -0.644

State its log2 ratio of Biotin-Ahx-Ub-VS probe labelling: O=C(CCl)NCC1(c2ccccc2)CC1
0.023

State its log2 ratio of Biotin-Ahx-Ub-VS probe labelling: O=C(CCl)NCc1ccc(Cl)cc1
-0.0207

###

System: USP7 (UniProt Q93009)
Sequence (Q93009 whole entry, looked up, the tested form may be a part): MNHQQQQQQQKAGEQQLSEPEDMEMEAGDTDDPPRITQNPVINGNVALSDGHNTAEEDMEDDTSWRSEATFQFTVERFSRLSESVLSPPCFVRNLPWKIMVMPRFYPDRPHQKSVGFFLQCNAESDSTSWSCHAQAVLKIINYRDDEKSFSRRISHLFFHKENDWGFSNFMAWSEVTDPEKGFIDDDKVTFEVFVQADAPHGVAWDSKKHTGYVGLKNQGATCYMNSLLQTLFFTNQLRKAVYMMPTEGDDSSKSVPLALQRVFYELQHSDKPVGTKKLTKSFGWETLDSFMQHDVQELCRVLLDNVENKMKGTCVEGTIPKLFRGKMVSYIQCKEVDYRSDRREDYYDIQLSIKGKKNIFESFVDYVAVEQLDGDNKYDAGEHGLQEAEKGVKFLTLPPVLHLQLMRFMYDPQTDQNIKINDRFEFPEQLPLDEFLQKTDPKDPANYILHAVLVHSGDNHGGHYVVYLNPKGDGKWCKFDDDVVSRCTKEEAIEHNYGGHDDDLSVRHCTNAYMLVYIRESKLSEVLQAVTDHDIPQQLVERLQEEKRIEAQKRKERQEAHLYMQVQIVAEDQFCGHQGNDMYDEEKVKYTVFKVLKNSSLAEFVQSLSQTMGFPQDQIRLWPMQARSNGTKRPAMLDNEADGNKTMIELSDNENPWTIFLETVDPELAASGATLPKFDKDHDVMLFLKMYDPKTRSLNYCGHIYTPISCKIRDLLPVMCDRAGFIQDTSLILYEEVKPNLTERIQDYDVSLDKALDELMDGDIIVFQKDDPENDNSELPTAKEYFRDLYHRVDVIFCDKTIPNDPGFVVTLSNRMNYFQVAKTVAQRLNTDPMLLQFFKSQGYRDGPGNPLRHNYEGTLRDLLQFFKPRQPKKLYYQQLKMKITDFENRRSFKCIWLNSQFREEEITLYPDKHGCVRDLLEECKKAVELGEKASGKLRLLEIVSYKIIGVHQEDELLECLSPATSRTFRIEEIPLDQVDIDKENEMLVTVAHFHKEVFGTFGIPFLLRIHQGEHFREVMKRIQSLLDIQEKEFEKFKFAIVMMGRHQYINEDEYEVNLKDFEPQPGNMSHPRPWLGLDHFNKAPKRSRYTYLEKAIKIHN
Method Description: log2 ratio of Biotin-Ahx-Ub-VS probe labelling (fragment/DMSO); higher = less target engagement (more negative = stronger competition), active = hit call of the paper (q ≤ 0.05, log2 ratio ≤ -1)
Stated Conditions: compound concentration: 200 uM; treatment time: 3 h
Tag: Y if measured log2 ratio of Biotin-Ahx-Ub-VS probe labelling is not below -0.5, N if it is.

Take a look at these entries with their results.
- Cl.O=C(CCl)N1CCC(n2nc3ccccc3n2)CC1: N
- NC(=O)C1CCCCN1C(=O)CCl (centres undefined): N
- O=C(CCl)N1CCC2(CCC(O)CC2)CC1: Y
- O=C(CCl)NCCc1cccc2ccccc12: Y
- Cc1ccc(CNC(=O)CCl)nc1C.Cl: Y

Switching to the query record.
In plain terms: is recorded log2 ratio of Biotin-Ahx-Ub-VS probe labelling at least -0.5 for Cl.O=C(CN1CCN(C(=O)CCl)CC1)Nc1ccc(F)cc1 ?
Y

###

System: USP47 (UniProt Q96K76)
Sequence (Q96K76 whole entry, the tested form may be a part): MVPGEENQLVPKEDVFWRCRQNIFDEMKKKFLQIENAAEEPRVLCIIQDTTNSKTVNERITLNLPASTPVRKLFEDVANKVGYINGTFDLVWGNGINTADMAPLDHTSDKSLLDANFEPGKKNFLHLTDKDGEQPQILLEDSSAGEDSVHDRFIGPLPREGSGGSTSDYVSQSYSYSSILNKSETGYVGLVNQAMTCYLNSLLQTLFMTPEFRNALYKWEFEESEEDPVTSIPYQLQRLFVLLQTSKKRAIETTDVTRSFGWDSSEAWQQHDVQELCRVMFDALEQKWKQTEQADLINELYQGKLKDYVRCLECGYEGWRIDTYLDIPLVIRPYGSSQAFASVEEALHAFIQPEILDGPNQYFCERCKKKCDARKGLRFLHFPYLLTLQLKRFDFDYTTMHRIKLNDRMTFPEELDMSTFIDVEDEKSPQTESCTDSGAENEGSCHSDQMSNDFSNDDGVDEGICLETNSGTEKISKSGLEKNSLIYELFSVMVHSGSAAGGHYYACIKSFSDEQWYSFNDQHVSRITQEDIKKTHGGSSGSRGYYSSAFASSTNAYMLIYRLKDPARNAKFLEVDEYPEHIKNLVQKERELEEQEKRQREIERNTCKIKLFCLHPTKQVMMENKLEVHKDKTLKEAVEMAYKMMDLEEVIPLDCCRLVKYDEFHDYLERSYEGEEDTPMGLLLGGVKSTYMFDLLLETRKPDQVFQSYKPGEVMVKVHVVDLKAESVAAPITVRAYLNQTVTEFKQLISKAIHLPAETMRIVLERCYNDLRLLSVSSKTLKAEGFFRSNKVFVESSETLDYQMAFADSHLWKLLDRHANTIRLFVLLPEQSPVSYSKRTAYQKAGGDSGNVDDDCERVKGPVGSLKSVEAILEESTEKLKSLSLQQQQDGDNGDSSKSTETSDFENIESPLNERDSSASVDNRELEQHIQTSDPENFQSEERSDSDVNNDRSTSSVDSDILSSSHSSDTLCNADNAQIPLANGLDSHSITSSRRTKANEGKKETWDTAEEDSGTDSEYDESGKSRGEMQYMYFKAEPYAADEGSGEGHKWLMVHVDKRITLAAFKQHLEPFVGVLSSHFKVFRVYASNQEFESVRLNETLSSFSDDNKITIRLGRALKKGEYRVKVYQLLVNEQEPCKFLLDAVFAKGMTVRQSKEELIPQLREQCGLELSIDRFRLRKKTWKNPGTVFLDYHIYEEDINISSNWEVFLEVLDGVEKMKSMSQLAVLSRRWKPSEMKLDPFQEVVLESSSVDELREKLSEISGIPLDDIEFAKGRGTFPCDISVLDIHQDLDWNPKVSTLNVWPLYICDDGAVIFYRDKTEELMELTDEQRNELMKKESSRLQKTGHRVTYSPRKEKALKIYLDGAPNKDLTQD
Method Description: log2 ratio of Biotin-Ahx-Ub-VS probe labelling (fragment/DMSO); higher = less target engagement (more negative = stronger competition), active = hit call of the paper (q ≤ 0.05, log2 ratio ≤ -1)
Stated Conditions: compound concentration: 200 uM; treatment time: 3 h
Measured log2 ratio of Biotin-Ahx-Ub-VS probe labelling by item

Worked cases, log2 ratio of Biotin-Ahx-Ub-VS probe labelling given:
* O=C(O)C1Cc2ccccc2CN1C(=O)CCl (centres undefined) | -0.301 (inactive)
* O=C(CCl)Nc1ccc(F)cc1Cl | -1.41 (active)

State its log2 ratio of Biotin-Ahx-Ub-VS probe labelling: O=C(CCl)NCc1ccc2c(c1)OCO2
0.0619 (inactive)

State its log2 ratio of Biotin-Ahx-Ub-VS probe labelling: O=C(CCl)N1c2ccccc2NC(=O)C12CCCC2
0.0188 (inactive)

State its log2 ratio of Biotin-Ahx-Ub-VS probe labelling: CS(=O)(=O)c1ccc(CNC(=O)CCl)cc1
-0.0551 (inactive)

State its log2 ratio of Biotin-Ahx-Ub-VS probe labelling: CNC(=O)Cn1cc(NC(=O)CCl)cn1
0.0561 (inactive)

State its log2 ratio of Biotin-Ahx-Ub-VS probe labelling: C[C@H]1CN(C(=O)CCl)CCN1C(=O)c1cnn(C)c1.Cl
-0.522 (inactive)

###

System: USP34 (UniProt Q70CQ2)
Method Description: log2 ratio of Biotin-Ahx-Ub-VS probe labelling (fragment/DMSO); higher = less target engagement (more negative = stronger competition), active = hit call of the paper (q ≤ 0.05, log2 ratio ≤ -1)
Stated Conditions: compound concentration: 200 uM; treatment time: 3 h
Tag: true if measured log2 ratio of Biotin-Ahx-Ub-VS probe labelling is not below -0.2, false if it is.

Take a look at these entries with their results.
• O=C(CCl)NCC1(c2ccccc2)CC1 = false
• O=C(CCl)NCCc1cccc2ccccc12 = true
• CC1(NC(=O)CCl)CCS(=O)(=O)C1 (centres undefined) = false

Switching to the query record.
In plain terms: is recorded log2 ratio of Biotin-Ahx-Ub-VS probe labelling at least -0.2 for CCC1c2ccsc2CCN1C(=O)CCl (centres undefined) ?
false

###

System: OTUD4 (UniProt Q01804)
Sequence (whole entry): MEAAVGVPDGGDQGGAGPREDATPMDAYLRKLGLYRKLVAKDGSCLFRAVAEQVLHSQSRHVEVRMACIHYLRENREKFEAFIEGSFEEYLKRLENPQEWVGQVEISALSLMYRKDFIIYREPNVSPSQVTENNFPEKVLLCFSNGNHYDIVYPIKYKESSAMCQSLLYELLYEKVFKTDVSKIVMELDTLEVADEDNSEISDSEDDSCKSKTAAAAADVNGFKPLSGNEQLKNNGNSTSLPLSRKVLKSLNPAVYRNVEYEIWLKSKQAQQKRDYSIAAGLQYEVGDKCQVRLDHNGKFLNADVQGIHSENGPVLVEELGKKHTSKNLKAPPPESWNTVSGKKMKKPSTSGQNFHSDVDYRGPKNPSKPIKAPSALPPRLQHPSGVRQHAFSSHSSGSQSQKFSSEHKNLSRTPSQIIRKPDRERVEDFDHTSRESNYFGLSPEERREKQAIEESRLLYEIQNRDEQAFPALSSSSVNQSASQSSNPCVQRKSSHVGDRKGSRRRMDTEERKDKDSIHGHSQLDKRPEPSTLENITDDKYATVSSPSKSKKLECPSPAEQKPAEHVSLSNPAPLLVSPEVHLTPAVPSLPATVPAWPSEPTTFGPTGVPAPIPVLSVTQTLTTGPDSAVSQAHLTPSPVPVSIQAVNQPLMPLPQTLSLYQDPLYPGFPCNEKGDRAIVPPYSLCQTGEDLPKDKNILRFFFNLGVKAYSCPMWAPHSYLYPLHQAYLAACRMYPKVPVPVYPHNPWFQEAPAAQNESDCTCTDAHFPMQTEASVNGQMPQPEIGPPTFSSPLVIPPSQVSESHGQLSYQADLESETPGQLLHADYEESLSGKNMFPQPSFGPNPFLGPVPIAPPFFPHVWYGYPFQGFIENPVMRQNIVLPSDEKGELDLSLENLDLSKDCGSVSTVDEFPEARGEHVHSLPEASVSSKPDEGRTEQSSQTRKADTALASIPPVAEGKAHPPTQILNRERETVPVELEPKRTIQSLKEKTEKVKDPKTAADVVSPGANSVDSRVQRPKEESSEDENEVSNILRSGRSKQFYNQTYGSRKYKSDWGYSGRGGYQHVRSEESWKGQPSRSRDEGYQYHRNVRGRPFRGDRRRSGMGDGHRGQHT
Method Description: log2 ratio of Biotin-Ahx-Ub-VS probe labelling (fragment/DMSO); higher = less target engagement (more negative = stronger competition), active = hit call of the paper (q ≤ 0.05, log2 ratio ≤ -1)
Stated Conditions: compound concentration: 200 uM; treatment time: 3 h
Measured log2 ratio of Biotin-Ahx-Ub-VS probe labelling by item
Simply state the number, no unit and no words.

Worked cases, log2 ratio of Biotin-Ahx-Ub-VS probe labelling given:
- Cl.O=C(CCl)N1CC(c2ccc(Br)cn2)C1: -0.553
- Cl.O=C(CCl)NCc1ccnc(Oc2ccccc2F)c1: -0.244
- Cc1nc(CNC(=O)CCl)c2ccccn12.Cl: -0.199
- Cl.O=C(CCl)N1CCc2ncncc2C1: -0.304
- Cc1ccc(-c2nnc(C)[nH]2)c(NC(=O)CCl)c1: -0.353

State its log2 ratio of Biotin-Ahx-Ub-VS probe labelling: O=C(CCl)N1CCN(c2nc3ccccc3o2)CC1
-0.141

State its log2 ratio of Biotin-Ahx-Ub-VS probe labelling: CN1C(=O)c2ccc(NC(=O)CCl)cc2C1=O
-0.313

State its log2 ratio of Biotin-Ahx-Ub-VS probe labelling: Cc1ncc2c(n1)CCN(C(=O)CCl)C2
-0.0123

State its log2 ratio of Biotin-Ahx-Ub-VS probe labelling: O=C(CCl)N(C1=CCCCC1)C1CC1
0.037

State its log2 ratio of Biotin-Ahx-Ub-VS probe labelling: Cc1ccn2cc(CNC(=O)CCl)nc2c1.Cl
-0.505

State its log2 ratio of Biotin-Ahx-Ub-VS probe labelling: Cc1ccc(CC(CO)CNC(=O)CCl)cc1 (stereo not drawn)
-0.858

State its log2 ratio of Biotin-Ahx-Ub-VS probe labelling: N#Cc1cnn(-c2ccccc2)c1NC(=O)CCl
-0.641

State its log2 ratio of Biotin-Ahx-Ub-VS probe labelling: O=C(CCl)N1CCN(C(=O)N2CCCCC2)CC1
-0.638
